Each item that follows carries a reported z-score.
Method: Components of the Cytosolic LPS Sensing Pathway: Gene Identification via Genome-wide siRNA Screen
Setup conditions: RAW264.7 macrophages, IL-1a HTRF, actives lie on both sides, screened at 100 nM (by protocol), cells primed 5 h with Pam3CSK4 first
Experimental: Non-canonical inflammasome activation by cytosolic LPS is a critical component of the host response to Gram-negative bacterial infection, however we lack a comprehensive understanding of the cellular processes that control this pathway. […] Lipofectamine RNAiMAX Transfection Reagent ([…]; Invitrogen) was added in […] serum-free, antibiotic-free media to plate wells using a Thermo Scientific Matrix WellMate and Microplate Stacker. […] The plates were read on an EnVision plate reader (PerkinElmer). […]
Hit rate of the full screen: of about 53,000 sequences, about 3,700 (7%) were called active. Only a selection was taken, and actives are over-represented in it overall.
Reply with the value as a number alone.

Use the examples below as a reference point.
Biopolymer sequence: GGGAAGAAAAUGAAAGGUUTT against Cdk5rap2
Readout type: z-score
Test result: -1.14
--
Biopolymer sequence: GGACUUACUUCCCAUUUCGTT against Gdpd3
Readout type: z-score
Test result: 0.297
--
Biopolymer sequence: GGCACUGGGCAAACAUUAATT against Ptprcap
Readout type: z-score
Test result: 1.09

Consider the additional sequence presented here.
In: Value lookup for z-score; key = GGAUUUGGAUUUGGAUUUUTT against Tsc22d3
Out: 0.387

* * *

Method: Components of the Cytosolic LPS Sensing Pathway: Gene Identification via Genome-wide siRNA Screen
Setup conditions: RAW264.7 macrophages, IL-1a HTRF, actives lie on both sides, screened at 100 nM (by protocol), cells primed 5 h with Pam3CSK4 first
Method: Non-canonical inflammasome activation by cytosolic LPS is a critical component of the host response to Gram-negative bacterial infection, however we lack a comprehensive understanding of the cellular processes that control this pathway. […] Lipofectamine RNAiMAX Transfection Reagent ([…]; Invitrogen) was added in […] serum-free, antibiotic-free media to plate wells using a Thermo Scientific Matrix WellMate and Microplate Stacker. […] The plates were read on an EnVision plate reader (PerkinElmer). […]
Among all 53,000 sequences or so, about 3,700 (7%) were called active. Many of the other results were omitted from the sample, so actives are more common in it than they were.
Readout type: z-score
Enter a number only.

Example results:
Biopolymer sequence: GGAACAAGUGGCUGAAGAUTT against Cyp11b2
Readout type: z-score
Test result: 0.566
--
Biopolymer sequence: GGCUCACUCUCCAUUCUACTT against Asb6
Readout type: z-score
Test result: -0.902
--
Biopolymer sequence: GGUUAGCCAGCUGAAUCAATT against Cxxc4
Readout type: z-score
Test result: 1.89

In: Dear colleague, I am looking for the recorded z-score of the following sequence: GGCACAGACUAAGGUAUAGTT against Adra2c
Out: -1.51

* * *

Method: Components of the Cytosolic LPS Sensing Pathway: Gene Identification via Genome-wide siRNA Screen
Setup conditions: RAW264.7 macrophages, IL-1a HTRF, actives lie on both sides, screened at 100 nM (by protocol), cells primed 5 h with Pam3CSK4 first
About 3,700 (7%) of roughly 53,000 sequences were called active. The entries come from a sample that favours actives as a whole.
A collection of sequences and their measured z-score
Form: value (number only, do not type unit).

Biopolymer sequence: CCAGAUAAGCCUCAUCAAUTT against Scn5a
z-score: -0.163

Biopolymer sequence: GGUGCUGAGCAUGGUGUUATT against Spag4
z-score: 3.17

Biopolymer sequence: GGAGGCAUGCCCUAUGAAUTT against Zfp11
z-score: 1.4

Biopolymer sequence: CGCCACUGCUUUGAUUACUTT against Coa5
z-score: -1.51

In: Entry under review: CCUAGUAACUAUCUACCUCTT against Sval3 . Reported z-score?
Out: 0.232

In: Input GGAUGAAUAAGGACAGAUUTT against Phospho2
Out: 0.335

In: Now this one: GGACACAUGGUGUUGACCATT against Parp12
Out: 0.0379

In: Now this one: GCCAGUCAUGCCUAUUUUCTT against Zmym6
Out: -0.528

In: Can you handle CCGGUUACAAACUCAACUGTT against Syne3 next?
Out: -0.285

In: Continue with GCGACAUAACUGCAUUCAATT against Kcnh1
Out: 2.79

In: Same for CGCAGACAGUUUGAGGCUGTT against Gpbp1
Out: -2.34

* * *

Method: Components of the Cytosolic LPS Sensing Pathway: Gene Identification via Genome-wide siRNA Screen;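 further: robust z of the log signal after scaling to non-targeting control siRNA wells of the plate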
Setup conditions: RAW264.7 macrophages, IL-1a HTRF, actives lie on both sides, screened at 100 nM (by protocol), cells primed 5 h with Pam3CSK4 first
The campaign covered roughly 53,000 sequences. About 3,700 (7%) were called active. The entries come from a sample that favours actives as a whole.
Each entry gets Not satisfied if its z-score stays under 0.2, and Satisfied if its z-score is 0.2 or above.

The examples below pair each entry with its known result.
Biopolymer sequence: GGUCAAGUGCGAGAAACUCTT against Mafb
Label class: Not satisfied
//
Biopolymer sequence: GGAAAGAAGCAGCGGACUUTT against Nme7
Label class: Satisfied
//
Biopolymer sequence: UGACUUUUGGACACGAGGCTT against Trim15
Label class: Not satisfied
//
Biopolymer sequence: GGACGUGGAAAACCACAGUTT against Nphp4
Label class: Not satisfied
//
Biopolymer sequence: GUGCAGGUCCUAAUCUGAATT against Asb1
Label class: Satisfied
//
Biopolymer sequence: GGUCAUCAGUGAGCUGAAUTT against Rplp2
Label class: Not satisfied
//
Biopolymer sequence: CGACAACAUUUUCCUGUCATT against Serpinc1
Label class: Not satisfied
//
Biopolymer sequence: GCGAAUGAUAUGUAUCAGATT against Pik3r1
Label class: Satisfied

Proceed to the following item.
In: Dear colleague, could you confirm whether CCAAGAUUCAUAAGAAGGCTT against Tas2r131 has z-score at or above 0.2?
Out: Satisfied

* * *

Method: Components of the Cytosolic LPS Sensing Pathway: Gene Identification via Genome-wide siRNA Screen;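 further: robust z of the log signal after scaling to non-targeting control siRNA wells of the plate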
Setup conditions: RAW264.7 macrophages, IL-1a HTRF, actives lie on both sides, screened at 100 nM (by protocol), cells primed 5 h with Pam3CSK4 first
The whole screen tested about 53,000 sequences, of which about 3,700 (7%) were called active. The sample as a whole holds a higher share of actives than the screen did.
Readout type: z-score
A bare number is all that is needed in reply.

In: Given the entry GGGUUUGACUGUACAGUACTT against Adamts4 , report its measured z-score.
Out: -1.29

In: What do we get for CCUAUGGUAGAAAAAUACUTT against Fundc1 ?
Out: -0.252

* * *

// reported z-score for each item listed
Method: Components of the Cytosolic LPS Sensing Pathway: Gene Identification via Genome-wide siRNA Screen;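 further: robust z of the log signal after scaling to non-targeting control siRNA wells of the plate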
Setup conditions: RAW264.7 macrophages, IL-1a HTRF, actives lie on both sides, screened at 100 nM (by protocol), cells primed 5 h with Pam3CSK4 first
In all, about 53,000 sequences went through this assay and about 3,700 (7%) were called active. Shown is part of a subset that was picked to be rich in actives.
Number only, no unit.

Some entries whose results are on file:
Biopolymer sequence: GGAAUUCCUUCGUUUCCUUTT against Usp2
z-score: 1.64

Biopolymer sequence: GGAUUUCUUUGUCAGUACUTT against Il22ra2
z-score: 0.791

Biopolymer sequence: GGCGCAAUGCUCAUGUGAATT against Gzmc
z-score: -0.54

Biopolymer sequence: UCAGCGAGCUUUAACCUUUTT against Olfr1028
z-score: 0.26

Biopolymer sequence: GGGAUCAAUGCUUAAUACATT against Zfp2
z-score: 1.1

Here is another sequence to look at.
In: Name the recorded z-score for CCUUGUAAGUGAGAUCCGATT against Olfr118 .
Out: 1.38

* * *

Reported values of z-score for individual entries
Method: Components of the Cytosolic LPS Sensing Pathway: Gene Identification via Genome-wide siRNA Screen;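 further: robust z of the log signal after scaling to non-targeting control siRNA wells of the plate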
Setup conditions: RAW264.7 macrophages, IL-1a HTRF, actives lie on both sides, screened at 100 nM (by protocol), cells primed 5 h with Pam3CSK4 first
Method: Non-canonical inflammasome activation by cytosolic LPS is a critical component of the host response to Gram-negative bacterial infection, however we lack a comprehensive understanding of the cellular processes that control this pathway. […] Lipofectamine RNAiMAX Transfection Reagent ([…]; Invitrogen) was added in […] serum-free, antibiotic-free media to plate wells using a Thermo Scientific Matrix WellMate and Microplate Stacker. […] The plates were read on an EnVision plate reader (PerkinElmer). […]
The whole screen tested about 53,000 sequences, of which about 3,700 (7%) were called active. The full list was thinned out, with actives kept by preference.
Simply state the number, no unit and no words.

See these solved cases before continuing.
Biopolymer sequence: GGAUGACCAGAACUUCAGUTT against Zfp956
Readout type: z-score
Test result: 2.84

Biopolymer sequence: GGAACAGCUGACCUACUUUTT against Ahi1
Readout type: z-score
Test result: 1.08

Biopolymer sequence: GUACUUGAAACGAACUGGATT against B4galnt4
Readout type: z-score
Test result: -1.68

In: Sample GCAAAGGUUCUAGUUGAUATT against Cct2 — what was its z-score?
Out: -0.585

In: And what about the sequence GGACUGUGAGGCCUAUGAATT against Cd72 ?
Out: -0.1

In: Now give it for GGGUUGCUUCAACUUUUAGTT against Mpp1 too.
Out: -0.346

In: Same question, CCAGUUGUGCAAUCAACAATT against Fam98c this time
Out: -0.367

In: // same read-out, input: GGAUACAAGCCUUUUAACCTT against Sri
Out: -0.0625

In: How about GGAGAAAGGUUUUGUUAUGTT against Gtf2h2 ?
Out: 1.5

In: How about this sequence: GGGAAGAUGUGAUGUCUUUTT against Rab29
Out: -0.556

In: And what about the sequence UUCCCACUCUGACUAUUUUTT against Olfr970 ?
Out: -0.0332

In: Now the same for GCCUAUCAGUAUCAUAGUUTT against Dnajc10
Out: 0.905

In: Follow-up entry: GUCACUCUUUUUUAUGGAATT against Olfr485
Out: -1.48

In: Now try GGGCAACUGUACGUACCAUTT against Cd93 .
Out: 0.0137

In: Also GGGACAAGUGGUUGAAACCTT against Prmt8 ?
Out: -2.01
